SUBJECT_OF_TEST: purified human MAP4K4 kinase domain (Homo sapiens, UniProt O95819)
Construct: purified human MAP4K4 kinase domain
Sequence (O95819 25-289 limits assumed): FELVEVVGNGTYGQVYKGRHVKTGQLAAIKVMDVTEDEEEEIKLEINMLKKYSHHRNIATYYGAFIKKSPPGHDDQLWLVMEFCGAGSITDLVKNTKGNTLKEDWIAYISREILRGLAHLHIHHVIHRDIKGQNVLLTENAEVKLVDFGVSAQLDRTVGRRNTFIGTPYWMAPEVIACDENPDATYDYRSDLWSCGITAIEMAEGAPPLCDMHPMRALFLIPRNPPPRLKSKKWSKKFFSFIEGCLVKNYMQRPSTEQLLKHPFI
ASSAY_EXPLANATION: MAP4K4 Inhibition Assay Protocol No. 2 (Z'-LYTE FRET)
Type: biochemical
CONDITION_INFO: Assay 2; 1 nM enzyme, 10 uM ATP, 60 min
Here the recorded log10(IC50) is given for each entry.
OUTCOME_MEASURE: log10(IC50) (log10 of the value in µM)

MOLECULE: C[C@@H](O)C(=O)N1CC(NC(=O)c2cnc(N)c3nc(-c4cccc(F)c4)ccc23)C1 [Example 24]
log10(IC50): -2.40
--
MOLECULE: CN(C(=O)c1cnc(N)c2nc(-c3cccc(F)c3)ccc12)C1CN(C(=O)C2CC2)C1 [Example 41]
log10(IC50): 0.08
--
MOLECULE: Nc1ncc(-c2ncn[nH]2)c2ccc(-c3cccc(F)c3)nc12 [Example 42]
log10(IC50): -2.08
--
MOLECULE: Nc1ncc(-c2cc(CO)ccn2)c2ccc(-c3cccc(F)c3)cc12 [Example 137]
log10(IC50): -1.97
--
MOLECULE: Nc1ncc(C(=O)NC2CN(C(=O)N3CCOCC3)C2)c2ccc(-c3cccc(F)c3)nc12 [Example 27]
log10(IC50): -1.83
--
MOLECULE: Nc1ncc(C(=O)N2CC(N(C(=O)C3CC3)C(=O)C3CC3)C2)c2ccc(-c3cccc(F)c3)nc12 [Example 31]
log10(IC50): -0.55
--
MOLECULE: COCC(=O)N1CC(NC(=O)c2cnc(N)c3cc(-c4cccc(F)c4)ccc23)C1 [Example 128]
log10(IC50): -1.14
--
MOLECULE: Cn1cnc(-c2cnc(N)c3cc(-c4cccc(F)c4)ccc23)c1 [Example 10]
log10(IC50): -1.54
--
MOLECULE: CC(C)CNC(=O)c1cnc(N)c2nc(-c3cccc(F)c3)ccc12 [Example 40]
log10(IC50): -2.25
--
MOLECULE: CCC(=O)N1CC(NC(=O)c2cnc(N)c3nc(-c4cccc(F)c4)ccc23)C1 [Example 35]
log10(IC50): -2.42
--
MOLECULE: Cn1ccc(-c2cnc(N)c3cc(-c4cccc(F)c4)ccc23)n1 [Example 138]
log10(IC50): -1.84
--
MOLECULE: Nc1ncc(C(=O)NC2CN(S(=O)(=O)C(F)(F)F)C2)c2ccc(-c3cccc(F)c3)nc12 [Example 23]
log10(IC50): -1.55
--
MOLECULE: Nc1ncc(CNC(=O)c2ccccc2)c2ccc(-c3cccc(F)c3)cc12 [Example 136]
log10(IC50): -0.04
--
MOLECULE: Nc1ncc(C(=O)NC2CN(C(=O)NC3CC3)C2)c2ccc(-c3cccc(F)c3)cc12 [Example 132]
log10(IC50): -0.72
--
MOLECULE: Nc1ncc(C(=O)NC2CN(C(=O)N3CCS(=O)(=O)CC3)C2)c2ccc(-c3cccc(F)c3)nc12 [Example 15]
log10(IC50): -2.34
--
MOLECULE: Nc1ncc(C(=O)NC2CN(C(=O)C3CC3)C2)c2ccc(-c3ccnc(F)c3)nc12 [Example 44]
log10(IC50): -2.58
--
MOLECULE: CCOC(=O)c1cnc(N)c2nc(-c3cccc(S(=O)(=O)N(C)C)c3)ccc12 [Example 142]
log10(IC50): -0.32

###

SUBJECT_OF_TEST: purified human MAP4K4 kinase domain (Homo sapiens)
Construct: purified human MAP4K4 kinase domain
ASSAY_EXPLANATION: MAP4K4 Inhibition Assay Protocol No. 1 (Caliper LabChip, moesin-derived peptide phosphorylation)
Assay type: biochemical
CONDITION_INFO: Assay 1; 1 nM enzyme, 10 uM ATP, 45 min

SMILES_REPR: CCC(=O)N1CC(NC(=O)c2cnc(N)c3cc(-c4cccc(F)c4)ccc23)C1
SUBJECT_OF_TEST: purified human MAP4K4 kinase domain (Homo sapiens)
IC50 [µM]: 0.0503
--
SMILES_REPR: COCc1ccc(NC(=O)c2cnc(N)c3cc(-c4cccc(F)c4)ccc23)cc1
SUBJECT_OF_TEST: purified human MAP4K4 kinase domain (Homo sapiens)
IC50 [µM]: 0.0175
--
SMILES_REPR: Nc1ncc(C(=O)NC2CC2)c2ccc(-c3cccc(F)c3)cc12
SUBJECT_OF_TEST: purified human MAP4K4 kinase domain (Homo sapiens)
IC50 [µM]: 0.0156

###

SUBJECT_OF_TEST: purified human MAP4K4 kinase domain (Homo sapiens)
Construct: purified human MAP4K4 kinase domain
ASSAY_EXPLANATION: MAP4K4 Inhibition Assay Protocol No. 2 (Z'-LYTE FRET)
Assay type: biochemical
CONDITION_INFO: Assay 2; 1 nM enzyme, 10 uM ATP, 60 min
Lab note: cut-off is 0.004 µM. Strictly less in IC50 is rule met. Exactly 0.004 µM or more is rule not met.

MOLECULE: C[C@H](O)C(=O)N1CC(NC(=O)c2cnc(N)c3nc(-c4cccc(F)c4)ccc23)C1
LABEL_VALUE: rule not met

MOLECULE: CCOC(=O)c1cnc(N)c2nc(-c3ccc(OC)cc3)ccc12
LABEL_VALUE: rule not met

MOLECULE: CCOC(=O)c1cnc(N)c2nc(-c3cccc(F)c3)ccc12
LABEL_VALUE: rule met

MOLECULE: Nc1ncc(-c2nnco2)c2ccc(-c3cccc(F)c3)nc12
LABEL_VALUE: rule met

MOLECULE: CCOC(=O)c1cnc(N)c2nc(-c3ccc(F)cc3C)ccc12
LABEL_VALUE: rule not met

MOLECULE: COCC(=O)N1CC(NC(=O)c2cnc(N)c3nc(-c4cccc(F)c4)ccc23)C1
LABEL_VALUE: rule not met

MOLECULE: Nc1ncc(C(=O)NC2CN(S(N)(=O)=O)C2)c2ccc(-c3cccc(F)c3)nc12
LABEL_VALUE: rule met

MOLECULE: Nc1ncc(C(=O)N[C@H]2C[C@H](O)C2)c2ccc(-c3cccc(F)c3)nc12 [Example 14b]
LABEL_VALUE: rule not met

MOLECULE: CN(C)S(=O)(=O)N1CC(NC(=O)c2cnc(N)c3nc(-c4cccc(F)c4)ccc23)C1
LABEL_VALUE: rule met

MOLECULE: CCOC(=O)c1cnc(N)c2nc(-c3ccc(Cl)cc3Cl)ccc12
LABEL_VALUE: rule not met

MOLECULE: Nc1ncc(C(=O)NC2CN(C(=O)C3CC3)C2)c2ccc(-c3cccc(F)c3)nc12
LABEL_VALUE: rule met

MOLECULE: Nc1ncc(C(=O)NC2COC2)c2ccc(-c3cccc(F)c3)nc12
LABEL_VALUE: rule not met

MOLECULE: CCOC(=O)c1cnc(N)c2nc(-c3cccc(OC(C)C)c3)ccc12
LABEL_VALUE: rule not met

MOLECULE: CCOC(=O)c1cnc(N)c2nc(-c3cccc(OC(F)F)c3)ccc12
LABEL_VALUE: rule not met

MOLECULE: Nc1ncc(C(=O)NC(CO)CNC(=O)NC2CC2)c2ccc(-c3cccc(F)c3)cc12 (centres unmarked)
LABEL_VALUE: rule not met

MOLECULE: Nc1ncc(CNS(=O)(=O)C2CC2)c2ccc(-c3cccc(F)c3)cc12
LABEL_VALUE: rule not met

MOLECULE: CCOC(=O)c1cnc(N)c2nc(-c3cccc(C(=O)N(C)C)c3)ccc12
LABEL_VALUE: rule met

MOLECULE: CCOC(=O)c1cnc(N)c2nc(-c3cccc(OC)c3)ccc12
LABEL_VALUE: rule not met

MOLECULE: CNC(=O)N1CC(NC(=O)c2cnc(N)c3cc(-c4cccc(F)c4)ccc23)C1
LABEL_VALUE: rule not met

###

# IC50 listing for each entry below
SUBJECT_OF_TEST: purified human MAP4K4 kinase domain (Homo sapiens, UniProt O95819)
Construct: purified human MAP4K4 kinase domain
ASSAY_EXPLANATION: MAP4K4 Inhibition Assay Protocol No. 1 (Caliper LabChip, moesin-derived peptide phosphorylation)
Assay type: biochemical
CONDITION_INFO: Assay 1; 1 nM enzyme, 10 uM ATP, 45 min

COMPOUND: Nc1ncc(C(=O)NC(CO)CO)c2ccc(-c3cccc(F)c3)cc12
IC50 [µM]: 0.0386
--
COMPOUND: CN1CC(NC(=O)c2cnc(N)c3cc(-c4cccc(F)c4)ccc23)C1
IC50 [µM]: 0.869
--
COMPOUND: Nc1ncc(C(=O)NCCN2CCC(O)CC2)c2ccc(-c3cccc(F)c3)cc12
IC50 [µM]: 0.35
--
COMPOUND: Nc1ncc(C(=O)N2CCC(CO)CC2)c2ccc(-c3cccc(F)c3)cc12
IC50 [µM]: 0.622
--
COMPOUND: CC(O)CNC(=O)c1cnc(N)c2cc(-c3cccc(F)c3)ccc12 (centres unmarked)
IC50 [µM]: 0.0996
--
COMPOUND: CCNC(=O)N1CC(NC(=O)c2cnc(N)c3cc(-c4cccc(F)c4)ccc23)C1
IC50 [µM]: 0.168
--
COMPOUND: Nc1ncc(C(=O)NC(CO)CNC(=O)NC2CC2)c2ccc(-c3cccc(F)c3)cc12 (centres unmarked)
IC50 [µM]: 0.0609
--
COMPOUND: CC(C)NC(=O)c1cnc(N)c2cc(-c3cccc(F)c3)ccc12
IC50 [µM]: 0.135
--
COMPOUND: Nc1ncc(C(=O)NCCC(=O)N2CCOCC2)c2ccc(-c3cccc(F)c3)cc12
IC50 [µM]: 0.403
--
COMPOUND: COc1ccccc1CNC(=O)c1cnc(N)c2cc(-c3cccc(F)c3)ccc12
IC50 [µM]: 0.141
--
COMPOUND: Nc1ncc(C(=O)NCC2CC2)c2ccc(-c3cccc(F)c3)cc12
IC50 [µM]: 0.0399
--
COMPOUND: Nc1ncc(C(=O)NCCS(=O)(=O)N2CCCC2)c2ccc(-c3cccc(F)c3)cc12
IC50 [µM]: 0.388
--
COMPOUND: Nc1ncc(C(=O)NCCN2CCCCC2=O)c2ccc(-c3cccc(F)c3)cc12
IC50 [µM]: 0.146
--
COMPOUND: CC(C)(N)CNC(=O)c1cnc(N)c2cc(-c3cccc(F)c3)ccc12
IC50 [µM]: 2.4
--
COMPOUND: Cc1ncccc1NC(=O)c1cnc(N)c2cc(-c3cccc(F)c3)ccc12
IC50 [µM]: 0.0377
--
COMPOUND: CNCc1cnc(N)c2cc(-c3cccc(F)c3)ccc12
IC50 [µM]: 4.1
--
COMPOUND: Nc1ncc(C(=O)NC2CCCC2)c2ccc(-c3cccc(F)c3)cc12
IC50 [µM]: 0.0459
--
COMPOUND: Nc1ncc(C(=O)Nc2cccnc2)c2ccc(-c3cccc(F)c3)cc12
IC50 [µM]: 0.0124
--
COMPOUND: Nc1ncc(C(=O)NC2CCCC(O)C2)c2ccc(-c3cccc(F)c3)cc12 (centres unmarked)
IC50 [µM]: 0.0852
--
COMPOUND: Nc1ncc(C(=O)Nc2ccccc2)c2ccc(-c3cccc(F)c3)cc12
IC50 [µM]: 0.0338
--
COMPOUND: CCNC(=O)NCC(CO)NC(=O)c1cnc(N)c2cc(-c3cccc(F)c3)ccc12 (centres unmarked)
IC50 [µM]: 0.0602
--
COMPOUND: CNC(=O)c1cnc(N)c2cc(-c3cccc(F)c3)ccc12
IC50 [µM]: 0.0395
--
COMPOUND: N#Cc1cnc(N)c2cc(-c3cccc(F)c3)ccc12
IC50 [µM]: 0.0221
--
COMPOUND: Nc1ncc(C(=O)NC2CN(C(=O)NC3CC3)C2)c2ccc(-c3cccc(F)c3)cc12
IC50 [µM]: 0.18
--
COMPOUND: CNC(=O)c1nc(CNC(=O)c2cnc(N)c3cc(-c4cccc(F)c4)ccc23)no1
IC50 [µM]: 0.0452
--
COMPOUND: CN1CCC(Oc2ccc(NC(=O)c3cnc(N)c4cc(-c5cccc(F)c5)ccc34)cc2)CC1
IC50 [µM]: 0.0081
--
COMPOUND: C[C@@H](NC(=O)c1cnc(N)c2cc(-c3cccc(F)c3)ccc12)C(N)=O
IC50 [µM]: 0.557
--
COMPOUND: Nc1ncc(C(=O)NCCN2CCCC2=O)c2ccc(-c3cccc(F)c3)cc12
IC50 [µM]: 0.507
--
COMPOUND: COCC(=O)N1CC(NC(=O)c2cnc(N)c3cc(-c4cccc(F)c4)ccc23)C1
IC50 [µM]: 0.0705
